- experimentalDetails: Caspase-3/7 induction in HepG2 cells by small molecules, qHTS cell viability counter screen (AID 1346981); further: nearly all actives have a fitted effect of over 30% in size
- testSettings: CellTiter-Fluor fluorescence, 17 h; series mostly up to 92.4 µM
Results filed as inconclusive are left out. Active and inactive are the calls of the source. The call rests on the fitted dose curve; in most records, active means well fitted cell-killing curve with a large enough effect in the repeat runs; inconclusive means weak or mixed curves, or effect the other way; inactive means flat fitted curve, though single readings scatter.
Response enum: true (1) = active, false (0) = inactive

| molecule | labelValue |
| --- | --- |
| COc1ccccc1N=Nc1c(S(=O)(=O)O)cc2cc(S(=O)(=O)O)cc(NC(C)=O)c2c1O | true (1) |
| CCCOC(=O)c1ccc(C(=O)OCCC)nc1 | false (0) |
| NC(=O)Nc1ccc(Cl)c(Cl)c1 | false (0) |
| CC(=O)Nc1ccc(N)cc1 | false (0) |
| NC(=O)Nc1ccc(Cl)cc1 | false (0) |
| CO/N=C1\CN(c2nc3c(cc2F)c(=O)c(C(=O)O)cn3C2CC2)CC1CN (stereo unspecified) | false (0) |
| CCC(=O)OC/C=C/c1ccccc1 | false (0) |
| CC(=O)CC(c1ccc([N+](=O)[O-])cc1)c1c(O)c2ccccc2oc1=O (stereo unspecified) | false (0) |

Lab note: next molecule to report on.
Input line: What call does the record list for C[Si](NC1CCCCC1)(NC1CCCCC1)NC1CCCCC1 ?
Output line: false (0)
